test system: OCT2 and MATE1/2-K; assay: clinical; details: male, human, in vivo, AUC0–8hour, geometric mean, dolutegravir (fifth) + metformin
AUC(0-t) by entry:
observed.property: AUC(0-t) (µM·h)

INSERT INTO results (smiles_repr, quantity_unit, recorded_result) VALUES
  ('CN1CC(=O)NC1=N', 'µM·h', 691),
  ('Cn1cnc2c(ncn2[C@@H]2O[C@H](CO)[C@@H](O)[C@H]2O)c1=N', 'µM·h', 1.12);

----------
system: OCT2 and MATE1/2-K; assay: clinical; conditions: male, human, in vivo, 800 mg, C max of metformin, with cimetidine 800 mg; geometric mean (geometric %CV)
observed.property: Cmax (µM)

INSERT INTO results (molecule, system_under_test, recorded_result) VALUES
  ('CN(C)C(=N)N=C(N)N [Metformin]', 'OCT2 and MATE1/2-K', 28);

----------
test system: OCT2 and MATE1/2-K; assay: clinical; conditions: male, human, in vivo, CLr (0–8 h), geometric mean, baseline
observed.property: CL renal (mL/min)

INSERT INTO measurements (smiles_repr, observed_property, quantity_unit, recorded_result) VALUES
  ('Cn1cnc2c(ncn2[C@@H]2O[C@H](CO)[C@@H](O)[C@H]2O)c1=N', 'CL renal', 'mL/min', 188);

----------
system: OCT2 and MATE1/2-K; assay: clinical; conditions: male, human, in vivo, 50 mg, C max of metformin, with dolutegravir 50 mg BID, fifth dose; geometric mean (geometric %CV)
observed.property: Cmax (µM)

INSERT INTO assay_data (molecule, system_under_test, recorded_result) VALUES
  ('CN(C)C(=N)N=C(N)N [Metformin]', 'OCT2 and MATE1/2-K', 23.8);

----------
tested on: OCT2 and MATE1/2-K; test: clinical; conditions: male, human, in vivo, AUC0–8hour, geometric mean, control (metformin alone)
observed.property: AUC(0-t)

INSERT INTO assay_data (smiles_repr, recorded_result) VALUES
  ('Cn1cnc2c(ncn2[C@@H]2O[C@H](CO)[C@@H](O)[C@H]2O)c1=N', '0.791 µM·h'),
  ('CN1CC(=O)NC1=N', '600 µM·h');

----------
test system: OCT2 and MATE1/2-K; assay: clinical; conditions: male, human, in vivo, 50 mg, CLr of metformin (0–24 hour), with dolutegravir 50 mg BID, first dose; geometric mean (geometric %CV)
observed.property: CL renal (mL/min)

INSERT INTO assay_data (molecule, quantity_unit, recorded_result) VALUES
  ('CN(C)C(=N)N=C(N)N [Metformin]', 'mL/min', 339);

----------
assay type: in vivo, human; conditions: male, human, plasma, oral, 50 mg
observed.property: AUC(0-inf)

INSERT INTO assay_data (smiles_repr, observed_property, recorded_result) VALUES
  ('C[C@@H]1CCO[C@H]2Cn3cc(C(=O)NCc4ccc(F)cc4F)c(=O)c(O)c3C(=O)N12', 'AUC(0-inf)', '141 µM·h');

----------
biological target: MATE2‐K (Homo sapiens, UniProt Q86VL8); assay: Inhibition of MATE2‐K-mediated metformin uptake in MATE2‐K-HEK293 cells
Sequence (Q86VL8 1-566 isoform Q86VL8-3): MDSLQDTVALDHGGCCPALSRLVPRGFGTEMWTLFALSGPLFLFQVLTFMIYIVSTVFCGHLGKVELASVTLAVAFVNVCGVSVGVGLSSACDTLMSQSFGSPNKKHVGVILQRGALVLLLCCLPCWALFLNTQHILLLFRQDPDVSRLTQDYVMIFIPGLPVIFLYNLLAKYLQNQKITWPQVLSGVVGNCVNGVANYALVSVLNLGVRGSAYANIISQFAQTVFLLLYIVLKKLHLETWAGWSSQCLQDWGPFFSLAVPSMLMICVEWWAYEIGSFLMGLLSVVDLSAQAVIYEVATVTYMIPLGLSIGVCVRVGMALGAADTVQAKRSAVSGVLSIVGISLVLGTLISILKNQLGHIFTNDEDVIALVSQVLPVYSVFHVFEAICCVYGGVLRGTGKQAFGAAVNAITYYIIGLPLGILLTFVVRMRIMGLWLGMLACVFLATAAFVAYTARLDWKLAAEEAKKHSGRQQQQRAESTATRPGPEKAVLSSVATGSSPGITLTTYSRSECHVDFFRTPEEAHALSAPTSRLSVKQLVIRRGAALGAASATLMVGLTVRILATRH
pKi: −log10 of the molar value.
observed.property: pKi

INSERT INTO assay_data (smiles_repr, observed_property, recorded_result) VALUES
  ('C[C@@H]1CCO[C@H]2Cn3cc(C(=O)NCc4ccc(F)cc4F)c(=O)c(O)c3C(=O)N12', 'pKi', 5.53);

----------
type: in vivo, human; details: male, human, plasma, oral, 800 mg, maximum plasma concentration (C max), cimetidine 800 mg; geometric mean (geometric %CV)
observed.property: Cmax (µM)

INSERT INTO assay_data (compound, observed_property, quantity_unit, recorded_result) VALUES
  ('CN/C(=N/CCSCc1nc[nH]c1C)NC#N [Cimetidine]', 'Cmax', 'µM', 25.7);

----------
assay type: in vivo, human; settings: male, human, plasma, oral, 50 mg, half‐life after T max, dolutegravir 50 mg BID, fifth dose
observed.property: half-life

INSERT INTO assay_data (smiles_repr, recorded_result) VALUES
  ('C[C@@H]1CCO[C@H]2Cn3cc(C(=O)NCc4ccc(F)cc4F)c(=O)c(O)c3C(=O)N12', '16.6 h');

----------
# maps each entry to its AUC(0-t)
test system: OCT2 and MATE1/2-K; assay: clinical; settings: male, human, in vivo, AUC0–8hour, geometric mean, cimetidine 800 mg + metformin
observed.property: AUC(0-t)

INSERT INTO measurements (smiles_repr, system_under_test, recorded_result) VALUES
  ('Cn1cnc2c(ncn2[C@@H]2O[C@H](CO)[C@@H](O)[C@H]2O)c1=N', 'OCT2 and MATE1/2-K', '0.984 µM·h'),
  ('CN1CC(=O)NC1=N', 'OCT2 and MATE1/2-K', '689 µM·h');

----------
format: in vivo, human; conditions: male, human, plasma, oral, 50 mg, C max up to 12 hours after metformin administration, dolutegravir 50 mg BID, first dose; geometric mean (geometric %CV)
observed.property: Cmax

INSERT INTO assay_data (smiles_repr, recorded_result) VALUES
  ('C[C@@H]1CCO[C@H]2Cn3cc(C(=O)NCc4ccc(F)cc4F)c(=O)c(O)c3C(=O)N12', '7.07 µM');

----------
system: OCT2 and MATE1/2-K; test: clinical; settings: male, human, in vivo, CLr (0–8 h), geometric mean, control (metformin alone)
observed.property: CL renal (mL/min)

INSERT INTO measurements (compound, system_under_test, observed_property, recorded_result) VALUES
  ('Cn1cnc2c(ncn2[C@@H]2O[C@H](CO)[C@@H](O)[C@H]2O)c1=N [m^1A, N1‐methyladenosine]', 'OCT2 and MATE1/2-K', 'CL renal', 198);

----------
test system: OCT2 and MATE1/2-K; assay: clinical; details: male, human, in vivo, AUC0–8hour, geometric mean, dolutegravir (first) + metformin
Measured AUC(0-t) accompanies every entry in the list below.
observed.property: AUC(0-t)

INSERT INTO results (compound, system_under_test, observed_property, recorded_result) VALUES
  ('Cn1cnc2c(ncn2[C@@H]2O[C@H](CO)[C@@H](O)[C@H]2O)c1=N [m^1A, N1‐methyladenosine]', 'OCT2 and MATE1/2-K', 'AUC(0-t)', '0.977 µM·h'),
  ('CN1CC(=O)NC1=N [Creatinine, creatinine]', 'OCT2 and MATE1/2-K', 'AUC(0-t)', '712 µM·h');

----------
test system: OCT2 and MATE1/2-K; experiment: clinical; conditions: male, human, in vivo, CLr (0–8 h), geometric mean, cimetidine 800 mg + metformin
observed.property: CL renal (mL/min)

INSERT INTO results (smiles_repr, system_under_test, quantity_unit, recorded_result) VALUES
  ('Cn1cnc2c(ncn2[C@@H]2O[C@H](CO)[C@@H](O)[C@H]2O)c1=N', 'OCT2 and MATE1/2-K', 'mL/min', 159);

----------
tested on: OCT2 and MATE1/2-K; assay: clinical; conditions: male, human, in vivo, 50 mg, CLr of metformin (0–24 hour), with dolutegravir 50 mg BID, fifth dose; geometric mean (geometric %CV)
observed.property: CL renal (mL/min)

INSERT INTO assay_data (compound, quantity_unit, recorded_result) VALUES
  ('CN(C)C(=N)N=C(N)N [Metformin]', 'mL/min', 199);

----------
type: in vivo, human; conditions: male, human, plasma, oral, 50 mg, half‐life after T max, dolutegravir 50 mg BID, first dose
observed.property: half-life (h)

INSERT INTO assay_data (smiles_repr, quantity_unit, recorded_result) VALUES
  ('C[C@@H]1CCO[C@H]2Cn3cc(C(=O)NCc4ccc(F)cc4F)c(=O)c(O)c3C(=O)N12', 'h', 13);

----------
test system: OCT2 and MATE1/2-K; test: clinical; details: male, human, in vivo, AUC0–8hour, geometric mean, baseline
observed.property: AUC(0-t) (µM·h)

INSERT INTO measurements (smiles_repr, system_under_test, observed_property, quantity_unit, recorded_result) VALUES
  ('Cn1cnc2c(ncn2[C@@H]2O[C@H](CO)[C@@H](O)[C@H]2O)c1=N', 'OCT2 and MATE1/2-K', 'AUC(0-t)', 'µM·h', 0.822),
  ('CN1CC(=O)NC1=N', 'OCT2 and MATE1/2-K', 'AUC(0-t)', 'µM·h', 641);

----------
target: MATE1 (Homo sapiens, UniProt Q96FL8); assay: Inhibition of MATE1-mediated metformin uptake in MATE1-HEK293 cells; details: K i for MATE1, metformin (10 μM) uptake, 37°C, MATE1-HEK; average of experiments
Sequence (Q96FL8 whole entry): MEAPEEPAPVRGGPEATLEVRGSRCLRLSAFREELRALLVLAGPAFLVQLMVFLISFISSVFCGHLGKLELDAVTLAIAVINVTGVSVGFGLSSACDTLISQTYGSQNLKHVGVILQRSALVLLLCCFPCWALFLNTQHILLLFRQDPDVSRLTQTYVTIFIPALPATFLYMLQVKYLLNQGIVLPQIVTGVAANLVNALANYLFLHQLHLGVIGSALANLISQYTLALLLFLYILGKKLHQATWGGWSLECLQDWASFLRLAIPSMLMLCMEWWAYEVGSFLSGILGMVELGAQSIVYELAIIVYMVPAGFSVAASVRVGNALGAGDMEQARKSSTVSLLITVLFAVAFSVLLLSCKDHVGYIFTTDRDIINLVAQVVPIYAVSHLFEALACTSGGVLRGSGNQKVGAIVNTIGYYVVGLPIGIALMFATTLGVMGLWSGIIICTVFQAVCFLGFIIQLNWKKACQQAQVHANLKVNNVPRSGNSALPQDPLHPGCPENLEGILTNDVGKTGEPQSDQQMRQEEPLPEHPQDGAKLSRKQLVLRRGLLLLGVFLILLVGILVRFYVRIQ
observed.property: Ki

INSERT INTO measurements (compound, system_under_test, recorded_result) VALUES
  ('C[C@@H]1CCO[C@H]2Cn3cc(C(=O)NCc4ccc(F)cc4F)c(=O)c(O)c3C(=O)N12 [Dolutegravir]', 'MATE1 (Homo sapiens, UniProt Q96FL8)', '0.83 µM');
